- System: Wolbachia pipientis
- method: Anti-Wolbachia Cell-Based Screen
- Assay type: functional
- Set-up: scale not given: in the data most compounds retested in dose-response had high values
- experimental-parameters: 5 µM
In all, about 48,000 compounds went through this assay and about 13,000 (27%) showed an effect of 50% or more. This is one part of the list.
Each record here notes measured Percent Effect.
# unit: % | format: bare number

# compound, Percent Effect [%]
records = [
    ("Cc1nc(O)cc(C2CCCN(C(=O)COCc3ccccc3)C2)n1 (stereo unspecified)", 12.86),
    ("CC(C)(C)CN(CCC#N)C(=O)Cc1ccc(-n2cnnn2)cc1", -11.58),
    ("O=C(NCC1(O)CCSCC1)c1ccoc1", -3.908),
    ("CCc1ccc(CNC(=O)CCc2nnc(-c3ccc(C)s3)o2)nc1", 18.56),
    ("COCC(=O)N1C[C@H]2CN(Cc3csc(C)n3)C(=O)[C@H]2C1.O=C(O)C(F)(F)F", -18.32),
]

Could you now consider this next compound?
Read off the recorded Percent Effect for CC(=O)N1C[C@@H](F)[C@@H](OCc2nc3ccccc3o2)C1
-12.47

The reported measurements were obtained from ChEMBL document CHEMBL3988442.
